Reported half-life values are given for each entry in this list.
Experiment: Blood kinetics
Type: in vivo, dog (male beagle)
Conditions: plasma; beagle dog, 10 mg/kg, estimated from intravenous administration
Method: Evaluation Example 7 (Blood kinetics) For the experiment, male beagle dogs were employed. A test drug was intravenously or orally administered in a dose of 10 mg/kg. Blood samples were collected at 0.25, 0.5, 1, 2, 4, 6 and 24 hours after administering the test drug, and the samples were centrifuged to separate plasma, for which a plasma level of the test drug was determined by HPLC. Half-life of the test drug in blood was estimated from the results at the intravenous administration. […]
observation type: half-life (h)

* COCCN1CCN(C[C@H]2CCN(c3ccc(Cl)cc3)C2=O)CC1 [compound 21] | 3.5
* COC1CCN(C[C@H]2CCN(c3ccc(Cl)cc3)C2=O)CC1 [Compd. of formula (V), reference compound] | 1.5

---

Assay: Blood kinetics
Assay type: in vivo, dog (male beagle)
Details: dog, plasma, po, 10 mg/kg; read-out: Extent of Bioavailability
observation type: bioavailability (%)

- COC1CCN(C[C@H]2CCN(c3ccc(Cl)cc3)C2=O)CC1 [Compd. of formula (V), reference compound]: 64.3
- COCCN1CCN(C[C@H]2CCN(c3ccc(Cl)cc3)C2=O)CC1: 83.1

---

Target: D2 receptor (Rattus norvegicus)
Sequence (P61169 whole entry): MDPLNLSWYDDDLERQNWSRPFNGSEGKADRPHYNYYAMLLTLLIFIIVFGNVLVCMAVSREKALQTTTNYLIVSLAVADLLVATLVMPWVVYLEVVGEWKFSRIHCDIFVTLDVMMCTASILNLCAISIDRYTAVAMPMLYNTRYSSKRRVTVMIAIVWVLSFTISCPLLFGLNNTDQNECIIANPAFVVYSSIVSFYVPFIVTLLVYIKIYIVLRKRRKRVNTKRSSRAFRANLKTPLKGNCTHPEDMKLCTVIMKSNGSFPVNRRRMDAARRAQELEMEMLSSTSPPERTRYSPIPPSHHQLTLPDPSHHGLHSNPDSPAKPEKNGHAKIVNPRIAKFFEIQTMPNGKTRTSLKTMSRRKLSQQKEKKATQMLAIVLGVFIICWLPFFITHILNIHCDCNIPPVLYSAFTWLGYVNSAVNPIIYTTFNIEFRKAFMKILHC
Test: Radioreceptor assay for D2 receptor (3H-spiperone, cerebral striatal homogenate)
Settings: read-out: Affinity for a receptor, Ki D2
pKi: −log10 of the molar value.
observation type: pKi

• COCCN1CCN(CC2CCN(c3ccc(Cl)cc3)C2=O)CC1 (stereo not drawn) = < 5.48
• C[C@@H]1CN(CCCn2c3ccccc3c3ccccc32)C[C@H](C)N1 [Rimcazole, reference compound] = 4.94
• C#CCOCCN1CCN(CC2CCN(c3ccc(Cl)cc3)C2=O)CC1 (stereo not drawn) = < 5.48
• COCCN1CCN(CC2CCN(c3cccc(Br)c3)C2=O)CC1 (stereo not drawn) = < 5.55
• CCOCCN1CCN(CC2CCN(c3ccc(Cl)cc3)C2=O)CC1 (stereo not drawn) = < 5.48
• COCCN1CCN(C[C@H]2CCN(c3ccc(Cl)cc3)C2=O)CC1 = < 5.41

---

Experiment: Safety: simple acute toxicity for a mouse
Assay type: in vivo
Conditions: 300 mg/kg oral, observed until 2 hours
observation type: Convulsion/Treatment

- COCCN1CCN(CC2CCN(c3ccc(Br)cc3)C2=O)CC1 (stereo not drawn): 0/5
- COCCN1CCN(C[C@H]2CCN(c3ccc(Cl)cc3)C2=O)CC1: 0/4
- COCCN1CCN(CC2CCN(c3ccc(Cl)cc3)C2=O)CC1 (stereo not drawn): 0/6
- CCCCN1CCN(CC2CCN(c3cccc(C(F)(F)F)c3)C2=O)CC1 (stereo not drawn) [Compound of formula (IV), reference compound]: 5/5
- COC1CCN(C[C@H]2CCN(c3ccc(Cl)cc3)C2=O)CC1 [Compd. of formula (V), reference compound]: 1/3
- CCOCCN1CCN(CC2CCN(c3ccc(Cl)cc3)C2=O)CC1 (stereo not drawn): 0/3

---

Molecular target: σ1 receptor (Cavia porcellus, UniProt Q60492)
Construct: prepared from a whole brain of a guinea pig without cerebellum and medulla
Sequence (Q60492 whole entry): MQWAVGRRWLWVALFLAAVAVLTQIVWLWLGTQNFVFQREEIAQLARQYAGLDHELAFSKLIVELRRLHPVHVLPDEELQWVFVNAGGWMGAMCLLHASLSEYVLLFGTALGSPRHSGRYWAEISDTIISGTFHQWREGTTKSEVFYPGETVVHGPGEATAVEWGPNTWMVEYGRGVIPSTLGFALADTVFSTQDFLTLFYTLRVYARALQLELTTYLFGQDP
Assay: Radioreceptor assay for a σ1 receptor (3H-(+)pentazocine binding, whole brain P2 fraction)
Conditions: guinea pig brain P2 fraction, 3 nM 3H-(+)pentazocine, room temperature, 2 hours; read-out: Affinity for a receptor, Ki σ1
pKi: −log10 of the molar value.
observation type: pKi

• C#CCOCCN1CCN(CC2CCN(c3ccc(Cl)cc3)C2=O)CC1 (centres unmarked) [compound 10] = 8.00
• CCOCCN1CCN(CC2CCN(c3ccc(Cl)cc3)C2=O)CC1 (centres unmarked) [compound 8] = 7.85
• COCCN1CCN(CC2CCN(c3ccc(Cl)cc3)C2=O)CC1 (centres unmarked) [compound 2] = 7.07
• COCCN1CCN(CC2CCN(c3cccc(Br)c3)C2=O)CC1 (centres unmarked) [compound 18] = 8.12
• COCCN1CCN(C[C@H]2CCN(c3ccc(Cl)cc3)C2=O)CC1 [compound 21] = 7.14

---

Reported ED50 values are given for each entry in this list.
Test system: head weaving behavior induced by a σ-receptor agonist SKF-10047
Experiment: Anti-SKF effect: inhibition of SKF-10047-induced head weaving
Assay type: in vivo, mouse (male ddY)
Conditions: 1 h; mouse, oral treatment before 60 min; SKF-10047 20 mg/kg s.c.
observation type: ED50 (mg/kg)

* COCCN1CCN(CC2CCN(c3ccc(Cl)cc3)C2=O)CC1 (stereo not shown) | 2.1
* CCCCN1CCN(CC2CCN(c3cccc(C(F)(F)F)c3)C2=O)CC1 (stereo not shown) [Compound of formula (IV), reference compound] | 14
* COCCN1CCN(C[C@H]2CCN(c3ccc(Cl)cc3)C2=O)CC1 | 0.77
* COCCN1CCN(CC2CCN(c3ccc(Br)cc3)C2=O)CC1 (stereo not shown) | 0.52
